Tested on: 786-0 renal
test-method-notes: NCI-60 one-dose screen, 48 h (100 = growth as untreated, 0 = no growth, -100 = all killed)
experimental-parameters: 10 µM unless noted
The panel holds about 83,000 compounds, 20% with a hit somewhere; the sample as a whole holds those more often.
The compounds listed here are annotated with their growth.
value-kind: growth (%)

compound=CC(C)c1ccc(NC(=O)Nc2ccc(NC(=O)c3ccccc3N)cc2)cc1 subject_of_test="786-0 renal" value_kind=growth endpoint_value=8.19
compound="C=CCOC(=O)C1=C(C)NC(=O)NC1c1c(Cl)n(C)c2ccccc12 (configuration not stated)" subject_of_test="786-0 renal" value_kind=growth endpoint_value=91.3
compound=COc1ccc(/C(C)=C(\c2ccc(OCCN3CCCCCC3)cc2)c2ccc(OC(=O)c3ccccc3)cc2)cc1 subject_of_test="786-0 renal" value_kind=growth endpoint_value=27.5
compound=CN1CCN(CCCOc2ccc3ncnc(Nc4ccc(Oc5cccc(F)c5)c(Cl)c4)c3c2)CC1 subject_of_test="786-0 renal" value_kind=growth endpoint_value=-3.9
compound="C=CC(C)(O)CC/C=C(\\CO)C(=O)OC1C(C)OC(O[C@](C)(C=C)CC/C=C(\\CO)C(=O)O[C@H]2C[C@@]3(C(=O)OC4OC(CO)C(O)C(O)C4OC4OC(C)C(OC5OC(CO)C(O)C5O)C(OC5OC(CO)C(O)C(O)C5O)C4O)C(CC2(C)C)C2=CCC4[C@@]5(C)CC[C@H](OC6OC(COC7OC(C)C(O)C(O)C7OC7OCC(O)C(O)C7O)C(O)C(O)C6NC(C)=O)C(C)(C)C5CC[C@@]4(C)[C@]2(C)C[C@H]3O)C(O)C1O (some centres not stated)" subject_of_test="786-0 renal" value_kind=growth endpoint_value=-77.5
compound=CCCCCCCCCCCCCCCCCCOc1ccccc1CC(=O)NCC[N+]1(C)CCOCC1 subject_of_test="786-0 renal" value_kind=growth endpoint_value=2.4
compound=Nc1ccc([N+](=O)[O-])cc1N=C/C=C/c1ccccc1 subject_of_test="786-0 renal" value_kind=growth endpoint_value=78.6

----------
Test system: K-562 leukemia
test-method-notes: NCI-60 one-dose screen, 48 h
experimental-parameters: 10 µM unless noted
This is part of a sample that, as a whole, favours compounds with a hit. Of some 83,000 tested, about 20% had one in any assay. The source made the active and inactive calls. Rule for the calls: active = growth percent below 10; inactive = the rest.
Outcome codes: active, inactive

compound=CCOC(=O)C/C(=N\Nc1cc(=O)[nH]c2ccc(Cl)cc12)C(=O)OCC class_label=inactive
compound=C[C@H]1[C@H](C)CC[C@]2(C(=O)O)CC[C@]3(C)C(=CC[C@@H]4[C@@]5(C)C[C@@H](Cc6cn([C@@H]7O[C@H](CO)[C@@H](O)[C@H](O)[C@H]7O)nn6)[C@H](O)C(C)(C)[C@@H]5CC[C@]43C)[C@H]12 class_label=inactive
compound=CC/C=C1/C(=O)C=C[C@@H]1C/C=C\CCCC(=O)OC class_label=active
compound=CCCCCCOC(=O)CC1=C(C)/C(=C/c2[nH]c(-c3ccc[nH]3)cc2OC)N=C1C class_label=active
compound=C#CC#CC#CC#CC#CC#CC#CC#CC[C@H]1OC[C@H](COC(=O)O[C@@H](C(=O)O[C@H]2C[C@@]3(O)[C@@H](OC(=O)c4ccccc4)[C@@H]4[C@]5(OC(C)=O)CO[C@@H]5C[C@H](O)[C@@]4(C)C(=O)[C@H](OC(C)=O)C(=C2C)C3(C)C)[C@@H](NC(=O)c2ccccc2)c2ccccc2)O1 class_label=inactive
compound=Cn1cc(-c2nn3cc(-c4ccccc4)nc3s2)c2ccccc21 class_label=inactive
compound=CCCCCSB(SCCCCC)c1ccccc1 class_label=inactive
compound=CCN=C1C=CC(=C(c2ccc(N(C)C)cc2)c2ccc(N(C)C)cc2)c2ccccc21 class_label=inactive
compound=CC1(C)CC[C@]2(C(=O)N3CCOCC3)CC[C@]3(C)C(=CC[C@@H]4[C@@]5(C)C/C(=C/c6ccncc6)C(=O)C(C)(C)[C@@H]5CC[C@]43C)[C@@H]2C1 class_label=active
compound=CCOC(=O)c1ccc2c(c1)c1c(C)c3ccncc3c(C)c1n2C class_label=active
compound=O=C(Cn1nnc2ccccc21)N/N=C/c1ccccc1F class_label=inactive
compound=CCC(CC)(N(CC(=O)O)CC(=O)O)C(CC)(CC)N(CC(=O)O)CC(=O)O class_label=inactive
compound=CC/C(Cc1ccccc1)=C(\c1ccc(OCCN2CCCCCC2)cc1)c1ccc(OC(=O)NCc2ccccc2)cc1 class_label=active
compound=Cn1cc(/C=C2/C(=O)Nc3ccccc32)c2ccccc21 class_label=inactive
compound=COc1ccc(/C(C)=C(\c2ccc(OCCN3CCCCCC3)cc2)c2ccc(OC(=O)c3ccccc3)cc2)cc1 class_label=active
compound=Cn1ncc2ccc(-c3nc(-c4ccccc4)[nH]c3-c3n[nH]c(=O)n3C3CC3)cc21 class_label=inactive

----------
System: SN12C renal
test-method-notes: NCI-60 one-dose screen, 48 h (100 = growth as untreated, 0 = no growth, -100 = all killed)
experimental-parameters: 10 µM unless noted
About 83,000 compounds went through this panel and 20% of them were active in at least one assay; those are over-represented in the sample as a whole.
Quick list: growth per entry.
value-kind: growth (%)

compound=CC(C)C[C@@H](C(=O)N[C@H](C(=O)OC1CCCC1)c1ccccc1)[C@H](O)C(=O)NO value_kind=growth endpoint_value=86.5
compound=Cc1ccc(Nc2nc(-c3ccc(F)cc3)c(C#N)c(=O)n2C)cc1 value_kind=growth endpoint_value=62.9
compound=COc1ccc(OC)c(-c2cn3nc(-c4c[nH]c5ccc(Br)cc45)sc3n2)c1 value_kind=growth endpoint_value=44.2
compound=CC[C@]12C=CCN3CC[C@@]4(c5ccc(OC)cc5N(C)[C@H]4[C@@](O)(C(=O)OC)[C@@H]1OC(=O)CCCN1CCOCC1)[C@@H]32 value_kind=growth endpoint_value=105

----------
Tested on: HOP-92 NSCLC
test-method-notes: NCI-60 one-dose screen, 48 h (100 = growth as untreated, 0 = no growth, -100 = all killed)
experimental-parameters: 10 µM unless noted
Procedure: Growth inhibition of the HOP-92 human Non-Small Cell Lung tumor cell line is measured as a screen for anti-cancer activity. Cells are grown in 96 well plates and exposed to the test compound for 48 hours. Compounds are tested at a single concentration, which is 10^-5 M for most compounds. The reported endpoint is percent growth (GI% or GIPRCNT), where numbers from 0 - 100% represent growth inhibition, and numbers from -100% - 0 represent cell death. […]
This is part of a sample that, as a whole, favours compounds with a hit. Of some 83,000 tested, about 20% had one in any assay.
Reported growth values follow for various compounds
value-kind: growth (%)

compound=CCOC(=O)C/C(=N\Nc1cc(=O)[nH]c2ccc(Cl)cc12)C(=O)OCC quantity_unit=% endpoint_value=87.5
compound=O=C1NC(=C(Cl)Cl)/C(=N/S(=O)(=O)N2CCCCC2)N1 quantity_unit=% endpoint_value=-81.8
compound=C#CCOc1cccc(-c2ncc3cc(NC(=O)CCl)ccc3n2)c1 quantity_unit=% endpoint_value=14.2
compound=CCOC(=O)c1c(-c2ccc(Cl)cc2)c(C#N)c2c(C#N)c(N)nn2c1N quantity_unit=% endpoint_value=63.1
compound="COc1cc2c(c(OC)c1OC)C(=O)CC(c1cccc(NC(=O)c3ccccc3Br)c1)O2 (stereo not given)" quantity_unit=% endpoint_value=65.2
compound="COc1cc(C2Cc3ncccc3-c3[nH]c(=O)c4cccnc4c32)cc(OC)c1OC (stereo not given)" quantity_unit=% endpoint_value=67.5
compound=CC(=O)c1c(Nc2ccc(F)c(F)c2F)[nH]c2c(F)cc(F)cc2c1=O quantity_unit=% endpoint_value=-18.8
compound="COc1cccc(NC(=O)c2cccc(C3CCc4c(cc(OC)c(OC)c4OC)O3)c2)c1 (stereo not given)" quantity_unit=% endpoint_value=26.3
compound="CC(C(=O)O)n1c(O)c(C=Nc2cccnc2)sc1=S (stereo not given)" quantity_unit=% endpoint_value=86
compound=CC(C)c1ccc(-n2c(=S)[nH]c3sc4c(c3c2=O)CCC(=O)C4)cc1 quantity_unit=% endpoint_value=-6.71

----------
System: A498 renal
test-method-notes: NCI-60 one-dose screen, 48 h
experimental-parameters: 10 µM unless noted
The panel holds about 83,000 compounds, 20% with a hit somewhere; the sample as a whole holds those more often. Active and inactive are the calls of the source. Rule for the calls: active = growth percent below 10; inactive = the rest.
Classes used: 1.0 (active), 0.0 (inactive)

molecule=Cn1c(=O)c2c(nc(NC3=NS(=O)(=O)c4ccccc43)n2Cc2ccccc2)n(C)c1=O subject_of_test="A498 renal" class_label=0.0
molecule=O=C(O)CCCn1c(SCc2c(Cl)cccc2Cl)nc2ccsc2c1=O subject_of_test="A498 renal" class_label=1.0
molecule=CN(C)c1ccc(-c2cc(-c3ccc(Nc4nc(Nc5ccc(Cl)cc5)nc(Nc5ccc(Cl)cc5)n4)cc3)nc(N)c2C#N)cc1 subject_of_test="A498 renal" class_label=0.0
molecule=C#CCOc1cccc(-c2ncc3cc(NC(=O)CCl)ccc3n2)c1 subject_of_test="A498 renal" class_label=0.0
molecule="COc1ccc(C2C(C#N)=C(N)Oc3c2sc2c(Br)cccc32)cc1 (stereo not drawn)" subject_of_test="A498 renal" class_label=0.0
molecule=CN1CCN(c2ccc(NC(=O)c3cncnc3Nc3ccc4c(ccn4Cc4cccc(F)c4)c3)cc2)CC1 subject_of_test="A498 renal" class_label=0.0
molecule=CCNCc1ccc(O)c2ncccc12 subject_of_test="A498 renal" class_label=0.0
molecule=O=C(/C=C/c1ccccc1)Nc1ncc(Cc2ccccc2)s1 subject_of_test="A498 renal" class_label=0.0
molecule=COc1ccc2cc(-c3cnc4nonc4n3)ccc2c1 subject_of_test="A498 renal" class_label=0.0
molecule=N#Cc1c(N2CCOCC2)nc(=S)[nH]c1-c1ccccc1 subject_of_test="A498 renal" class_label=0.0
molecule=Cc1cc2nc(-c3c(-c4ccc(F)cc4)nc4sccn34)[nH]c2cc1C subject_of_test="A498 renal" class_label=0.0
molecule=CC1(C)CC[C@]2(C(=O)O)CC[C@]3(C)C(=CC[C@@H]4[C@@]5(C)C[C@@H](Cc6cn([C@@H]7O[C@H](CO)[C@@H](O)[C@H](O)[C@H]7O)nn6)[C@H](O)C(C)(C)[C@@H]5CC[C@]43C)[C@@H]2C1 subject_of_test="A498 renal" class_label=0.0
molecule=O=C1c2cc3c(cc2-c2c1c1ccc(Cl)cc1c(=O)n2C[C@H](O)CO)OCO3 subject_of_test="A498 renal" class_label=1.0
molecule=O=C(CN1CCN(c2cc3c(cc2F)c(=O)c(C(=O)O)cn3C2CC2)CC1)N/N=C/c1ccncc1 subject_of_test="A498 renal" class_label=0.0
molecule="CC1=CCC[C@@H]2C1(C)CC[C@H](C)[C@@]2(C)CC1=CC(=O)C(SC(C)(C)C)=CC1=O (stereo partly drawn)" subject_of_test="A498 renal" class_label=0.0
molecule=COc1ccc(-c2cc(-c3cc(OC)c(OC)c(OC)c3)c(C#N)c(=O)n2CCCCCC(=O)NO)cc1 subject_of_test="A498 renal" class_label=0.0
molecule="CN1C(=O)N(C)C2C1NC(=S)N2/N=C/C=C/c1ccccc1[N+](=O)[O-] (stereo not drawn)" subject_of_test="A498 renal" class_label=0.0
molecule=CCOC(=O)NN1CC(O)=C(c2nc(-c3ccc(Br)cc3)cs2)C1=N subject_of_test="A498 renal" class_label=0.0
molecule=N#Cc1c(-c2ccccc2)nc2c(c(-c3ccccc3)nn2-c2ccccc2)c1-c1ccc(N2CCOCC2)cc1 subject_of_test="A498 renal" class_label=0.0
molecule=CCCCNC1=C(OCC)C(=O)c2ccccc2C1=O subject_of_test="A498 renal" class_label=0.0
molecule=CC[C@H](CC[C@@H](C)[C@H]1CC[C@H]2[C@@H]3CC[C@@H]4CC(=O)/C(=C\c5ccncc5)C[C@]4(C)[C@H]3CC[C@]12C)C(C)C subject_of_test="A498 renal" class_label=0.0
molecule=C/C(C=O)=C\c1ccc2c(c1)OCO2 subject_of_test="A498 renal" class_label=0.0
molecule=Cc1cc(N2CCCCC2)nc(N2CCN(CC(=O)Nc3ccc4c(ccn4Cc4ccccc4)c3)CC2)n1 subject_of_test="A498 renal" class_label=1.0
molecule=CCOC(=O)C/C(=N\Nc1cc(=O)[nH]c2ccc(Cl)cc12)C(=O)OCC subject_of_test="A498 renal" class_label=0.0
molecule=Cn1cc(-c2nn3cc(-c4ccccc4)nc3s2)c2ccccc21 subject_of_test="A498 renal" class_label=0.0
molecule="COc1ccc(C2CC(c3ccc(Nc4nc(Nc5ccc(F)cc5)nc(Nc5ccc(F)cc5)n4)cc3)=NN2C(C)=O)cc1 (stereo not drawn)" subject_of_test="A498 renal" class_label=0.0
molecule=CC/C=C1/C(=O)C=C[C@@H]1C/C=C\CCCC(=O)OC subject_of_test="A498 renal" class_label=0.0
molecule=CC1(C)CCC(S(=O)(=O)c2ccc3c(c2)/C(=N\O)c2cc(S(=O)(=O)N4CCN(c5ccc(F)cc5O)CC4)ccc2-3)CC1 subject_of_test="A498 renal" class_label=1.0
molecule=Cc1nc2sc(C(=O)Nc3ccccc3)c(N)c2cc1C(=O)/C=C/c1ccccc1 subject_of_test="A498 renal" class_label=1.0
molecule=COc1ccc(/C=C/C(=O)c2cc3c(N)c(C(=O)Nc4ccccc4C)sc3nc2C)cc1 subject_of_test="A498 renal" class_label=0.0
molecule=CNCc1cccc2c1OCCOCCN(C)C(=O)CN(C)S(=O)(=O)c1ccc(cc1)-c1cnc(N)c(n1)C(=O)N2 subject_of_test="A498 renal" class_label=0.0
molecule=C=CCCC(=O)N1C=CC(=O)[C@H](O)[C@@H]1/C=C/c1ccccc1 subject_of_test="A498 renal" class_label=0.0
molecule=Cn1cc(C(=O)c2nc(-c3c[nH]c4ccc(Br)cc34)no2)c2cc(Br)ccc21 subject_of_test="A498 renal" class_label=0.0
molecule=COc1cccc(/C=C2\COc3ccc(O)cc3C2=O)c1 subject_of_test="A498 renal" class_label=0.0
molecule=CCN(C(=O)N1CCN(c2cc3c(cc2F)c(=O)c(C(=O)O)cn3C2CC2)CC1)c1nc(-c2ccc(C)cc2)cs1 subject_of_test="A498 renal" class_label=1.0
molecule="COc1cc(C2C3=C(COC3=O)N(CCO)c3cc4c(cc32)OCCO4)cc(OC)c1OC (stereo not drawn)" subject_of_test="A498 renal" class_label=1.0
molecule=CCOC(=O)c1ccc2c(c1)c1c(C)c3ccncc3c(C)c1n2C subject_of_test="A498 renal" class_label=1.0
molecule="Nc1ncnc2c1c(-c1ccc(Oc3ccccc3)cc1)nn2CC1SSCC1O (stereo not drawn)" subject_of_test="A498 renal" class_label=0.0
